target: Isocitrate dehydrogenase [NADP] cytoplasmic (Homo sapiens); test: Inhibition of IDH1 R132H mutant (unknown origin) assessed as reduction in NADPH consumption using alpha-KG as substrate incubated for 60 mins by diaphorase and resazurin dye based assay
Sequence (O75874 2-414 R132H limits assumed): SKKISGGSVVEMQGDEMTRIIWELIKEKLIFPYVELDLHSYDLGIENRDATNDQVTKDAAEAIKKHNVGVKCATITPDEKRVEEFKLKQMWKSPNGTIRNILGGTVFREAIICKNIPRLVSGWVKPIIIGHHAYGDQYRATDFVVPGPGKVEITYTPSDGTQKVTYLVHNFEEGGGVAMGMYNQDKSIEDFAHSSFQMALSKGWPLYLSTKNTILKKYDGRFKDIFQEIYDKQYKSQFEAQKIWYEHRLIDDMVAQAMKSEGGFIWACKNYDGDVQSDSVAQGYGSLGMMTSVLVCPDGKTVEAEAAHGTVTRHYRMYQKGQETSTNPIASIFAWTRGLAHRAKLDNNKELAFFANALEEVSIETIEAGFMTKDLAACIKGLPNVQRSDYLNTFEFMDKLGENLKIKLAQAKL
pIC50: −log10 of the molar value.
Property measured: pIC50

The following compounds have reported results that may help.
[
  {
    "Compound": "C[C@@H](Nc1nc(N[C@H](C)C2CC2)nc(-n2ccc(C(F)(F)F)n2)n1)C1CC1",
    "pIC50": "> 7.30"
  },
  {
    "Compound": "FC1(F)CC(Nc2nc(NC3CC(F)(F)C3)nc(-c3nc(C(F)(F)F)cs3)n2)C1",
    "pIC50": "> 7.30"
  },
  {
    "Compound": "FC1(F)CCC(Nc2nc(NC3CCC(F)(F)CC3)nc(-c3cncc(C(F)(F)F)n3)n2)CC1",
    "pIC50": "> 7.30"
  }
]

Okay, next one:
get_value(item= CC(F)(F)c1cccc(-c2nc(NC3CCC(F)(F)C3)nc(NC3CCC(F)(F)C3)n2)n1 (centres undefined) , readout=pIC50) returns > 7.30
